This collection of values is drawn from patent US8629148B2.

So I've got Ki readings for human vasopressin V1b receptor (Homo sapiens), take a look.

Solved cases below.
molecule	property.name	assay.value
CCOc1ncccc1C1(NC(=O)c2ccc(N3CCN(CC)CC3)cc2)C(=O)N(S(=O)(=O)c2ccc(OC)cc2OC)c2ccc(C#N)cc21 (stereo not shown)	Ki	1 to 10 nM
CCOc1ncccc1C1(NCc2ccc(N3CCN(C)CC3)cc2)C(=O)N(S(=O)(=O)c2ccc(OC)cc2)c2ccc(F)cc21 (stereo not shown)	Ki	1 to 10 nM
CCOc1ncccc1C1(NCc2cccc(N3CCN(C)CC3)c2)C(=O)N(S(=O)(=O)c2ccc(OC)cc2OC)c2ccc(I)cc21 (stereo not shown)	Ki	1 to 10 nM
CCOc1ncccc1C1(NCc2ccc(N3CCN(C)CC3)cc2)C(=O)N(S(=O)(=O)c2cccc(OC)c2)c2ccc(C#N)cc21 (stereo not shown)	Ki	10 to 100 nM
CCOc1ncccc1C1(Nc2ccc(CN3CCN(C)CC3)cc2)C(=O)N(S(=O)(=O)c2ccc(OC)cc2)c2ccc(C#N)cc21 (stereo not shown)	Ki	10 to 100 nM

Q) Param item = CCOc1ccccc1C1(NCc2ccc(N3CCN(C)CC3)cc2)C(=O)N(S(=O)(=O)c2ccc(OC)cc2)c2ccc(C#N)cc21 (stereo not shown) ; retrieve measured Ki.
A) 1 to 10 nM

Q) Can you handle CCOc1ncccc1C1(NCc2ccc(N3CCN(C)CC3)cc2)C(=O)N(S(=O)(=O)c2ccc(OC)cc2)c2cc(F)c(F)cc21 (stereo not shown) next?
A) 1 to 10 nM

Q) Can you handle CCOc1ncccc1C1(NCc2cccc(N3CCN(C)CC3)c2)C(=O)N(S(=O)(=O)c2ccc(OC)cc2)c2ccc(I)cc21 (stereo not shown) next?
A) 1 to 10 nM

Q) Can you handle CCOc1ncccc1C1(NCc2ccc(N3CCN(C)CC3)cc2)C(=O)N(S(=O)(=O)c2ccc(OC)cc2OC)c2ccc(C#N)cc21 (stereo not shown) next?
A) 1 to 10 nM

Q) Can you handle CCOc1ncccc1C1(NCc2ccc(N3CCNCC3)cc2)C(=O)N(S(=O)(=O)c2ccc(OC)cc2)c2ccc(C#N)cc21 (stereo not shown) next?
A) 1 to 10 nM

Q) Can you handle CCOc1ncccc1C1(Nc2cccc(N3CCN(C)CC3)c2)C(=O)N(S(=O)(=O)c2ccc(OC)cc2OC)c2ccc(I)cc21 (stereo not shown) next?
A) 1 to 10 nM

Q) Can you handle CCOc1ncccc1C1(Nc2ccc(N3CCN(C)CC3)nc2)C(=O)N(S(=O)(=O)c2ccc(OC)cc2)c2ccc(I)cc21 (stereo not shown) next?
A) 1 to 10 nM

Q) Can you handle CCOc1ncccc1C1(NCc2ccc(N3CCNCC3)cc2)C(=O)N(S(=O)(=O)c2ccc(OC)cc2)c2cc(F)c(C#N)cc21 (stereo not shown) next?
A) 1 to 10 nM

---

# target.or.test.system: human vasopressin V1a receptor (Homo sapiens, UniProt P37288)
# Sequence (P37288 whole entry): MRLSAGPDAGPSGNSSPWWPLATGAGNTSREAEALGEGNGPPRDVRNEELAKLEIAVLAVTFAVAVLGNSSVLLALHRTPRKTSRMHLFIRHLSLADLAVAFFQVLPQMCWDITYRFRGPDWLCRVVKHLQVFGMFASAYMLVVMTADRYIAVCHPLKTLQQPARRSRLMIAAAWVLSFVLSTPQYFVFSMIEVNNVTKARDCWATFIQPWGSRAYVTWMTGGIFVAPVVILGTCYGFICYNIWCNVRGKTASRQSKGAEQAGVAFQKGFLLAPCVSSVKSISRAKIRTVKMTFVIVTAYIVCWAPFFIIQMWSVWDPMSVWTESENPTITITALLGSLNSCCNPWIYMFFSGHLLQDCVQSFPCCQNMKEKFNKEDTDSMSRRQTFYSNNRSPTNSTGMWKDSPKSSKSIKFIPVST
# procedure.details: Vasopressin V1a receptor binding assay (125I-AVP displacement, CHO-K1 membranes)
# test.context: selectivity quotient, human V1a vs human V1b
property.name: Ki(h-V1a)/Ki(h-V1b)*

compound	assay.value
CCOc1ncccc1C1(NCc2ccc(N3CCN(C)CC3)cc2)C(=O)N(S(=O)(=O)c2ccc(OC)cc2OC)c2ccc(C#N)cc21 (stereo not drawn) [Example 17]	+ (10-<25)
CCOc1ncccc1C1(Nc2ccc(N3CCN(C)CC3)cc2)C(=O)N(S(=O)(=O)c2ccc(OC)cc2)c2ccc(I)cc21 (stereo not drawn) [Example 50]	+ (10-<25)

---

# target.or.test.system: human vasopressin V1a receptor (Homo sapiens)
# procedure.details: Vasopressin V1a receptor binding assay (125I-AVP displacement, CHO-K1 membranes)
# test.context: selectivity quotient, human V1a vs human V1b
property.name: Ki(h-V1a)/Ki(h-V1b)*

compound	assay.value
CCOc1ncccc1C1(NCc2ccc(N3CCN(C)CC3)cc2)C(=O)N(S(=O)(=O)c2ccc(OC)cc2)c2ccc(F)cc21 (stereo not drawn)	++ (25-75)
CCOc1ccccc1C1(NCc2ccc(N3CCN(C)CC3)cc2)C(=O)N(S(=O)(=O)c2ccc(OC)cc2)c2ccc(C#N)cc21 (stereo not drawn)	++ (25-75)

---

# target.or.test.system: recombinant human oxytocin receptors (Homo sapiens, UniProt P30559)
# Construct: expressed in transfected cells; host or cells: HEK-293, transient expression; lysed and homogenized cells
# procedure.details: Oxytocin receptor binding assay (3H-oxytocin, HEK-293 cells)
# test.context: selectivity quotient, human OT vs human V1b
property.name: Ki(h-OT)/Ki(h-V1b)*

Solved cases below.
compound	Ki(h-OT)/Ki(h-V1b)*
COc1ccc(S(=O)(=O)N2C(=O)C(NCc3ccc(N4CCN(C)CC4)cc3)(c3cccnc3OCC(F)(F)F)c3cc(C#N)ccc32)cc1 (stereo not drawn)	++ (25-75)
CCOc1ncccc1C1(NCc2ccc(N3CCN(C)CC3)cc2)C(=O)N(S(=O)(=O)c2ccc(OC)cc2)c2ccc(C#N)cc21 (stereo not drawn)	+++ (>75)
CCOc1ncccc1C1(Nc2ccc(C(=O)N3CCN(C)CC3)cc2)C(=O)N(S(=O)(=O)c2ccc(OC)cc2OC)c2ccc(C#N)cc21 (stereo not drawn)	++ (25-75)
CCOc1ccccc1C1(NCc2ccc(N3CCN(C)CC3)cc2)C(=O)N(S(=O)(=O)c2ccc(OC)cc2)c2ccc(C#N)cc21 (stereo not drawn)	+++ (>75)

Q) Param item = CCOc1ncccc1C1(NCc2ccc(N3CCN(C)CC3)cc2)C(=O)N(S(=O)(=O)c2ccc(C#N)cc2)c2ccc(C#N)cc21 (stereo not drawn) ; retrieve measured Ki(h-OT)/Ki(h-V1b)*.
A) +++ (>75)

---

# target.or.test.system: recombinant human oxytocin receptors (Homo sapiens)
# Construct: expressed in transfected cells; host or cells: HEK-293, transient expression; lysed and homogenized cells
# Sequence (P30559 1-389): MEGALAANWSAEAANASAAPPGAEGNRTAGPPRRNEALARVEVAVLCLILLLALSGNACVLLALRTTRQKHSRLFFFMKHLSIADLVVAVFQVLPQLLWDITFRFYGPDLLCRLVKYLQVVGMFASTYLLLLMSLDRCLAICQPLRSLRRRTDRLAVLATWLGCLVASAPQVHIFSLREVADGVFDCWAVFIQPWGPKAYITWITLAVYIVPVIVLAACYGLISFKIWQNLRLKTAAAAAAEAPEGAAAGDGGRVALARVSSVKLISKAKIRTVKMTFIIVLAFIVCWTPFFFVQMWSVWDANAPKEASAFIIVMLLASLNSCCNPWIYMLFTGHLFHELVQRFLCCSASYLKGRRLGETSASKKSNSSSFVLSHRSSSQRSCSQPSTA
# procedure.details: Oxytocin receptor binding assay (3H-oxytocin, HEK-293 cells)
# test.context: selectivity quotient, human OT vs human V1b
property.name: Ki(h-OT)/Ki(h-V1b)*

Solved cases below.
molecule	Ki(h-OT)/Ki(h-V1b)*
CCOc1ncccc1C1(NCc2ccc(N3CCN(CC)CC3)cc2)C(=O)N(S(=O)(=O)c2ccc(OC)cc2)c2cc(F)c(C#N)cc21 (stereo not drawn) [Example 35]	+++ (>75)
CCOc1ncccc1C1(Nc2ccc(CN3CCN(C)CC3)cc2)C(=O)N(S(=O)(=O)c2ccc(OC)cc2OC)c2ccc(C#N)cc21 (stereo not drawn) [Example 74]	+++ (>75)
CCOc1ncccc1C1(NCc2ccc(N3CCN(C)CC3)cc2)C(=O)N(S(=O)(=O)c2ccc(OC)cc2)c2cc(Cl)c(F)cc21 (stereo not drawn) [Example 13]	++ (25-75)
CCOc1ncccc1C1(NC(=O)c2ccc(N3CCN(C)CC3)cc2)C(=O)N(S(=O)(=O)c2ccc(OC)cc2OC)c2ccc(C#N)cc21 (stereo not drawn) [Example 6]	++ (25-75)

Q) Param item = CCOc1ncccc1C1(Nc2cccc(N3CCN(C)CC3)c2)C(=O)N(S(=O)(=O)c2ccc(OC)cc2OC)c2ccc(I)cc21 (stereo not drawn) [Example 60] ; retrieve measured Ki(h-OT)/Ki(h-V1b)*.
A) ++ (25-75)

---

# target.or.test.system: recombinant human oxytocin receptors (Homo sapiens, UniProt P30559)
# Construct: expressed in transfected cells; host or cells: HEK-293, transient expression; lysed and homogenized cells
# Sequence (P30559 1-389): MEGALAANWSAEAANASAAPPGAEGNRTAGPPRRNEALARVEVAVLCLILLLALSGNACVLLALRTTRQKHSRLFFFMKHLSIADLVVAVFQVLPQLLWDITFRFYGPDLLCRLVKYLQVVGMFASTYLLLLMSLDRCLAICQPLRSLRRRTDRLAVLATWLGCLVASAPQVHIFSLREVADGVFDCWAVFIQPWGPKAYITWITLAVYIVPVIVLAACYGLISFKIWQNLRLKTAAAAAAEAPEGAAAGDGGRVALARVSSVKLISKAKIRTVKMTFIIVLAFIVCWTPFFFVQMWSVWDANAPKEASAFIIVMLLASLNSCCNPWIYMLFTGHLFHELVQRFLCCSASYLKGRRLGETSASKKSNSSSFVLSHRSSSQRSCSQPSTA
# procedure.details: Oxytocin receptor binding assay (3H-oxytocin, HEK-293 cells)
# test.context: selectivity quotient, human OT vs human V1b
property.name: Ki(h-OT)/Ki(h-V1b)*

compound	Ki(h-OT)/Ki(h-V1b)*
CCN1CCN(c2ccc(NC3(c4cccnc4OCC(F)F)C(=O)N(S(=O)(=O)c4ccc(OC)cc4)c4ccc(C#N)cc43)cc2)CC1 (stereo not drawn)	+++ (>75)
CCOc1ncccc1C1(NCc2ccc(N3CCN(CC)CC3)cc2)C(=O)N(S(=O)(=O)c2ccc(OC)cc2)c2ccc(C#N)cc21 (stereo not drawn)	+++ (>75)
CCOc1ncccc1C1(NCc2cccc(N3CCN(C)CC3)c2)C(=O)N(S(=O)(=O)c2ccccc2OC)c2ccc(I)cc21 (stereo not drawn)	++ (25-75)
CCOc1ncccc1C1(NC(=O)c2ccc(N3CCN(C)CC3)cc2)C(=O)N(S(=O)(=O)c2ccc(OC)cc2)c2ccc(C#N)cc21 (stereo not drawn)	++ (25-75)

Now consider the entry below.
Q) Param item = CCOc1ncccc1C1(NCc2cccc(N3CCN(C)CC3)c2)C(=O)N(S(=O)(=O)c2ccc(OC)cc2)c2ccc(I)cc21 (stereo not drawn) ; retrieve measured Ki(h-OT)/Ki(h-V1b)*.
A) ++ (25-75)
